- study_system: P3Z chimeric PD-1 receptor (human)
- Sequence (chain, as listed by the source mutant limits assumed): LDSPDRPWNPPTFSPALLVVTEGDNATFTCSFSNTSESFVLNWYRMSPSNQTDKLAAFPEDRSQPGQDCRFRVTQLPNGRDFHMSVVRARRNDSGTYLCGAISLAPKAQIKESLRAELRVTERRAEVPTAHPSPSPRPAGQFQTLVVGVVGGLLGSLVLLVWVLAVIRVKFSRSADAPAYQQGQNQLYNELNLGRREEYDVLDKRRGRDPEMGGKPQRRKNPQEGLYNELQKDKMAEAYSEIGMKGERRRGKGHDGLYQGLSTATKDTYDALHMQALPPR
- test_summary: cell-based or functional assay

{"binder": "Fab hu317-2_N73T / hu317-1_Vκ (Fab, V domains shown) VH: QVQLQESGPGLVKPSETLSLTCTVSGFSLTSYGVHWIRQPPGKGLEWLGVIWAGGSTNYNPSLKSRLTISKDTSKSQVSLKMSSVTAADTAVYYCARAYGNYWYIDVWGQGTTVTVSS VL: DIVMTQSPDSLAVSLGERATINCKASQSVSNDVAWYQQKPGQPPKLLINYAFHRFTGVPDRFSGSGYGTDFTLTISSLQAEDVAVYYCHQAYSSPYTFGGGTKLEIK", "IL-2 release in HuT78/P3Z, EC50 [µg/mL]": 0.31}
{"binder": "Fab hu317-2_L48I / hu317-1_Vκ (Fab, V domains shown) VH: QVQLQESGPGLVKPSETLSLTCTVSGFSLTSYGVHWIRQPPGKGLEWIGVIWAGGSTNYNPSLKSRLTISKDNSKSQVSLKMSSVTAADTAVYYCARAYGNYWYIDVWGQGTTVTVSS VL: DIVMTQSPDSLAVSLGERATINCKASQSVSNDVAWYQQKPGQPPKLLINYAFHRFTGVPDRFSGSGYGTDFTLTISSLQAEDVAVYYCHQAYSSPYTFGGGTKLEIK", "IL-2 release in HuT78/P3Z, EC50 [µg/mL]": 0.37}
{"binder": "Fab hu317-2_V78F / hu317-1_Vκ (Fab, V domains shown) VH: QVQLQESGPGLVKPSETLSLTCTVSGFSLTSYGVHWIRQPPGKGLEWLGVIWAGGSTNYNPSLKSRLTISKDNSKSQFSLKMSSVTAADTAVYYCARAYGNYWYIDVWGQGTTVTVSS VL: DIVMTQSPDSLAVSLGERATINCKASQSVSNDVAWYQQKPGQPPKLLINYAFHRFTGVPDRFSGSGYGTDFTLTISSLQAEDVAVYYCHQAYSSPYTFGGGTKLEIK", "IL-2 release in HuT78/P3Z, EC50 [µg/mL]": 0.38}
{"binder": "Fab hu317-3A / hu317-1_Vκ (Fab, V domains shown) VH: QVQLQESGPGLVKPSETLSLTCTVSGFSLTSYGVHWIRQPPGKGLEWIGVIWAGGSTNYNPSLKSRVTISVDTSKNQFSLKLSSVTAADTAVYYCARAYGNYWYIDVWGQGTTVTVSS VL: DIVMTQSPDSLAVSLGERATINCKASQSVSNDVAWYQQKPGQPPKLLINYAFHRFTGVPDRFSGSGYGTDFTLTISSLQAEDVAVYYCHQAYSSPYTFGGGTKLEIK", "IL-2 release in HuT78/P3Z, EC50 [µg/mL]": 0.35}
{"binder": "Fab hu317-2_L67V / hu317-1_Vκ (Fab, V domains shown) VH: QVQLQESGPGLVKPSETLSLTCTVSGFSLTSYGVHWIRQPPGKGLEWLGVIWAGGSTNYNPSLKSRVTISKDNSKSQVSLKMSSVTAADTAVYYCARAYGNYWYIDVWGQGTTVTVSS VL: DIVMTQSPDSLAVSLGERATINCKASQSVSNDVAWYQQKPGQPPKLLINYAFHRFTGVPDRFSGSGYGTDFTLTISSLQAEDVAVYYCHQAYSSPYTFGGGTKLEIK", "IL-2 release in HuT78/P3Z, EC50 [µg/mL]": 0.3}
